- Tested on: KRAS patient-derived spheroids with HUVEC/MSC, viability;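 note: spheroids exposed to agents for 7 days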
- procedure details: Anticancer human tumor 323965-272-R-J2-PDC patient-derived pancreatic carcinoma cell line growth inhibition [KRAS2]
- conditions: second compound 10 µM; first compound 0.0316 µM; stronger effect = lower value
Classification by viability, T/C | ranges: bucket A = under 30%, bucket B = from 30% up to 50%, bucket C = 50% and over

| compound | tested target | label value |
| --- | --- | --- |
| CN(C)C/C=C/C(=O)Nc1cc2c(Nc3ccc(F)c(Cl)c3)ncnc2cc1O[C@H]1CCOC1 + CNCc1ccccc1-c1csc(C(C)Nc2nc(C)nc3cc(OC)c(OC)cc23)c1 | KRAS patient-derived spheroids with HUVEC/MSC, viability | bucket A |
| COC(=O)c1ccc2c(C(=Nc3ccc(N(C)C(=O)CN4CCN(C)CC4)cc3)c3ccccc3)c(O)[nH]c2c1 + CC1OCC2(CCN(c3cnc(Sc4ccnc(N)c4Cl)c(N)n3)CC2)C1N | KRAS patient-derived spheroids with HUVEC/MSC, viability | bucket B |
| COc1cc(Nc2ncc3c(n2)-c2ccc(Cl)cc2C(c2c(F)cccc2OC)=NC3)ccc1C(=O)O + C=CC(=O)N1CCN(c2nc(=O)n(-c3c(C)ccnc3C(C)C)c3nc(-c4c(O)cccc4F)c(F)cc23)C(C)C1 | KRAS patient-derived spheroids with HUVEC/MSC, viability | bucket A |
| Cn1nccc1Nc1nccc(-c2cc3c(s2)C(C)(C)N(CCN2CCOCC2)C3=O)n1 + C=CC(=O)N1CCN(c2nc(=O)n(-c3c(C)ccnc3C(C)C)c3nc(-c4c(O)cccc4F)c(F)cc23)C(C)C1 | KRAS patient-derived spheroids with HUVEC/MSC, viability | bucket B |
| CC(C)n1nc(-c2ccc3oc(N)nc3c2)c2c(N)ncnc21 + CC1OCC2(CCN(c3cnc(Sc4ccnc(N)c4Cl)c(N)n3)CC2)C1N | KRAS patient-derived spheroids with HUVEC/MSC, viability | bucket A |
| CC(C)NCC(C(=O)N1CCN(c2ncnc3c2C(C)CC3O)CC1)c1ccc(Cl)cc1 (stereo not given) + COc1cc2nc(C)nc(NC(C)c3cc(N)cc(C(F)(F)F)c3)c2cc1OC1CCOC1 | KRAS patient-derived spheroids with HUVEC/MSC, viability | bucket C |
| O=C(c1cc(Cc2n[nH]c(=O)c3ccccc23)ccc1F)N1CCN(C(=O)C2CC2)CC1 + COc1cc2nc(C)nc(NC(C)c3cc(N)cc(C(F)(F)F)c3)c2cc1OC1CCOC1 | KRAS patient-derived spheroids with HUVEC/MSC, viability | bucket C |
| CCN1CCN(Cc2ccc(Nc3ncc(F)c(-c4cc(F)c5nc(C)n(C(C)C)c5c4)n3)nc2)CC1 + COc1cc2nc(C)nc(NC(C)c3cc(N)cc(C(F)(F)F)c3)c2cc1OC1CCOC1 | KRAS patient-derived spheroids with HUVEC/MSC, viability | bucket C |
| CC(C)n1nc(-c2ccc3oc(N)nc3c2)c2c(N)ncnc21 + COc1cc2nc(C)nc(NC(C)c3cc(N)cc(C(F)(F)F)c3)c2cc1OC1CCOC1 | KRAS patient-derived spheroids with HUVEC/MSC, viability | bucket A |
| COc1cc2nccc(Oc3ccc(NC(=O)C4(C(=O)Nc5ccc(F)cc5)CC4)cc3)c2cc1OC + CNCc1ccccc1-c1csc(C(C)Nc2nc(C)nc3cc(OC)c(OC)cc23)c1 | KRAS patient-derived spheroids with HUVEC/MSC, viability | bucket A |
| CCN1CCN(Cc2ccc(Nc3ncc(F)c(-c4cc(F)c5nc(C)n(C(C)C)c5c4)n3)nc2)CC1 + CNCc1ccccc1-c1csc(C(C)Nc2nc(C)nc3cc(OC)c(OC)cc23)c1 | KRAS patient-derived spheroids with HUVEC/MSC, viability | bucket A |
| O=C(c1cc(Cc2n[nH]c(=O)c3ccccc23)ccc1F)N1CCN(C(=O)C2CC2)CC1 + C=CC(=O)N1CCN(c2nc(=O)n(-c3c(C)ccnc3C(C)C)c3nc(-c4c(O)cccc4F)c(F)cc23)C(C)C1 | KRAS patient-derived spheroids with HUVEC/MSC, viability | bucket B |
| COc1cc2nccc(Oc3ccc(NC(=O)C4(C(=O)Nc5ccc(F)cc5)CC4)cc3)c2cc1OC + COc1cc2nc(C)nc(NC(C)c3cc(N)cc(C(F)(F)F)c3)c2cc1OC1CCOC1 | KRAS patient-derived spheroids with HUVEC/MSC, viability | bucket C |
| CC1OCC2(CCN(c3cnc(Sc4ccnc(N)c4Cl)c(N)n3)CC2)C1N (stereo not given) + C=CC(=O)N1CCN(c2nc(=O)n(-c3c(C)ccnc3C(C)C)c3nc(-c4c(O)cccc4F)c(F)cc23)C(C)C1 | KRAS patient-derived spheroids with HUVEC/MSC, viability | bucket B |
| CC1(C)CCC(CN2CCN(c3ccc(C(=O)NS(=O)(=O)c4ccc(NCC5CCOCC5)c([N+](=O)[O-])c4)c(Oc4cnc5[nH]ccc5c4)c3)CC2)=C(c2ccc(Cl)cc2)C1 + COc1cc2nc(C)nc(NC(C)c3cc(N)cc(C(F)(F)F)c3)c2cc1OC1CCOC1 | KRAS patient-derived spheroids with HUVEC/MSC, viability | bucket C |
| Cn1ncnc1[C@H]1c2n[nH]c(=O)c3cc(F)cc(c23)N[C@@H]1c1ccc(F)cc1 + COc1cc2nc(C)nc(NC(C)c3cc(N)cc(C(F)(F)F)c3)c2cc1OC1CCOC1 | KRAS patient-derived spheroids with HUVEC/MSC, viability | bucket C |
| CCNC(=O)CC1N=C(c2ccc(Cl)cc2)c2cc(OC)ccc2-n2c(C)nnc21 (stereo not given) + CNCc1ccccc1-c1csc(C(C)Nc2nc(C)nc3cc(OC)c(OC)cc23)c1 | KRAS patient-derived spheroids with HUVEC/MSC, viability | bucket A |
| CC1(C)CCC(CN2CCN(c3ccc(C(=O)NS(=O)(=O)c4ccc(NCC5CCOCC5)c([N+](=O)[O-])c4)c(Oc4cnc5[nH]ccc5c4)c3)CC2)=C(c2ccc(Cl)cc2)C1 + C=CC(=O)N1CCN(c2nc(=O)n(-c3c(C)ccnc3C(C)C)c3nc(-c4c(O)cccc4F)c(F)cc23)C(C)C1 | KRAS patient-derived spheroids with HUVEC/MSC, viability | bucket C |
| COC(=O)c1ccc2c(C(=Nc3ccc(N(C)C(=O)CN4CCN(C)CC4)cc3)c3ccccc3)c(O)[nH]c2c1 + C=CC(=O)N1CCN(c2nc(=O)n(-c3c(C)ccnc3C(C)C)c3nc(-c4c(O)cccc4F)c(F)cc23)C(C)C1 | KRAS patient-derived spheroids with HUVEC/MSC, viability | bucket B |
